- test.summary: Biodistribution in PC-3 tumor-bearing CB17-SCID mice
- Format: in vivo
- cond: mouse, spleen, intravenous, 100 pmol, ^177Lu-labeled; 1 h p.i.; 100 pmol; n = 4; read-out: Uptake in Spleen
Starred links: 1 amine or outer side, 2 acyl side, 3 side chain; linkers in the order of their positions; H or OH if unused. Non-standard residues stand in square brackets, D forms with d. Residues, ends and D or L forms follow the SMILES beside them. *: point of attachment. DOTA = O=C(O)CN1CCN(CC(=O)O)CCN(CC(=O)*)CCN(CC(=O)O)CC1; Sta = CC(C)C[C@H](N)[C@@H](O)CC(=O)O; X1 = O=C(CN1CCC(N[*:1])CC1)[*:2]; hSer = N[C@@H](CCO)C(=O)O
measured.endpoint: tissue uptake at 1 h
Please append the unit to your numeric answer.

Query: tissue uptake at 1 h; subject: CC(C)C[C@H](NC(=O)C[C@H](O)[C@H](CC(C)C)NC(=O)[C@H](Cc1c[nH]cn1)NC(=O)CNC(=O)[C@@H](NC(=O)[C@H](C)NC(=O)[C@H](Cc1c[nH]c2ccccc12)NC(=O)[C@H](CCO)NC(=O)[C@@H](Cc1ccccc1)NC(=O)CN1CCC(NC(=O)CN2CCN(CC(=O)O)CCN(CC(=O)O)CCN(CC(=O)O)CC2)CC1)C(C)C)C(N)=O [[^177Lu]Lu-[Hse^7]RM2, metal not drawn] ({DOTA}-[X1][dF][hSer]WAVGH[Sta]L-NH2)
0.6 %ID/g

====

- test.summary: Biodistribution in PC-3 tumor-bearing CB17-SCID mice
- Type: in vivo
- cond: CB17-SCID, mouse, tumor and bone, iv, 100 pmol, total radioactivity; ^68Ga-labeled; 1 h p.i.; n = 4; read-out: Tumor-to-Bone ratio
Starred links: 1 amine or outer side, 2 acyl side, 3 side chain; linkers in the order of their positions; H or OH if unused. Non-standard residues stand in square brackets, D forms with d. Residues, ends and D or L forms follow the SMILES beside them. *: point of attachment. DOTA = O=C(O)CN1CCN(CC(=O)O)CCN(CC(=O)*)CCN(CC(=O)O)CC1; Sta = CC(C)C[C@H](N)[C@@H](O)CC(=O)O; Bta = N[C@@H](Cc1csc2ccccc12)C(=O)O; X1 = O=C(CN1CCC(N[*:1])CC1)[*:2]; hSer = N[C@@H](CCO)C(=O)O
Consider the following compounds and their measured tissue to tissue ratio at 1 h readings.
Lab note: record just the number, no unit beside it.

If you can, please state the reported tissue to tissue ratio at 1 h value of CC(C)C[C@H](NC(=O)C[C@H](O)[C@H](CC(C)C)NC(=O)[C@H](Cc1c[nH]cn1)NC(=O)CNC(=O)[C@@H](NC(=O)[C@H](C)NC(=O)[C@H](Cc1c[nH]c2ccccc12)NC(=O)[C@H](CCO)NC(=O)[C@@H](Cc1ccccc1)NC(=O)CN1CCC(NC(=O)CN2CCN(CC(=O)O)CCN(CC(=O)O)CCN(CC(=O)O)CC2)CC1)C(C)C)C(N)=O [[^68Ga]Ga-[Hse^7]RM2, metal not drawn] ({DOTA}-[X1][dF][hSer]WAVGH[Sta]L-NH2) .
7.8

Consider the compound CC(C)C[C@H](NC(=O)C[C@H](O)[C@H](CC(C)C)NC(=O)[C@H](Cc1c[nH]cn1)NC(=O)CNC(=O)[C@@H](NC(=O)[C@H](C)NC(=O)[C@H](Cc1csc2ccccc12)NC(=O)[C@H](CCC(N)=O)NC(=O)[C@@H](Cc1ccccc1)NC(=O)CN1CCC(NC(=O)CN2CCN(CC(=O)O)CCN(CC(=O)O)CCN(CC(=O)O)CC2)CC1)C(C)C)C(N)=O [[^68Ga]Ga-[Bta^8]RM2, metal not drawn] ({DOTA}-[X1][dF]Q[Bta]AVGH[Sta]L-NH2) and give its measured tissue to tissue ratio at 1 h.
29.5

Values from paper PMC12401824
